# Tested on: RARa homodimer (NR concentration 270 nM)
# assayDetails: PBM binding z-score (relative to random genomic background probes); higher = stronger binding; sequences stand for … in GC…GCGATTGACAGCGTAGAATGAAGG
# cutoff 0.5 applies to PBM binding z-score; >= gives True, < gives False

Qu. Is reported PBM binding z-score greater than or equal to 0.5 here: TAGCCTAGGTCATGCGCGCCAGTATAGTGTCGGC
Ans. False

Qu. What do we get for CCTAGTAGTTGACCATAAGGGCAACCGAAGCTCG ?
Ans. True

Qu. What do we get for CCTACTGAGCCACGAAAGGTCATTGATTCAGTGA ?
Ans. True

Qu. What do we get for TCGAGTAGGTTAGGCGGGGCATTCAGCCAACATA ?
Ans. False

Qu. What do we get for CGCCCAAGGTCAAAGGTCAGTGAAGAGATGACGG ?
Ans. True

Qu. What do we get for CCTAACAGGCCAGGGTCACTCAAGCATTTCGCTT ?
Ans. False

Qu. What do we get for TCTTGTAGATCAAAGGTTTAGAAAGCCGAAGCCT ?
Ans. False

Qu. What do we get for CCGACAGGGGCAAGGTTACCATAACGCACAGCCA ?
Ans. False

Qu. What do we get for ATCGAAAGGTCGAGAGGTGAGTATACAGAAAGGC ?
Ans. False

Qu. What do we get for CCGAGTAGGATATGGGGCATTCAGGCAACGGTGA ?
Ans. False

Qu. What do we get for ATATGTAGGTTAACGGGTCATTCAGTTTGCGCAT ?
Ans. True

Qu. What do we get for ATATGTAGGTTATCGGGTCAGTCAGTTTGCGCAT ?
Ans. True

Qu. What do we get for CCTACTGGGCCAAAAAGGTTATTGATGCCGATAA ?
Ans. False

Qu. What do we get for CAAACTTGGTCACAGAGGTCAAAGTCCGTGCGTA ?
Ans. True

Qu. What do we get for ACTTGCGGGTCAACGAGGTTATAGCACGCGTATA ?
Ans. True

Qu. What do we get for CTCGAGAGGTCGGTTGAGGTGAGTATACGGATAA ?
Ans. False

Qu. What do we get for CCTTGCGGGTCACTCCAGGTTATAGCATCGGAGT ?
Ans. False

Qu. What do we get for AGCTCTAGGTAACCAAGTTCAGTGAATGCCGAAC ?
Ans. False

Qu. What do we get for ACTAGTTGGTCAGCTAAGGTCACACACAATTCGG ?
Ans. True

Qu. What do we get for ATCTCTAGGTAAAAGTTCATTGAATCCCGAGGAT ?
Ans. True

Qu. What do we get for TGAATGAGGTTAATGATCAGGGAACGTGGCGTCG ?
Ans. False

Qu. What do we get for GCGACTGGGGCATCATCAGGTTACCATAACTTAA ?
Ans. False

Qu. What do we get for AGAATGAGGTTATACGTAGAGCAGGGAAGAAAGT ?
Ans. False

Qu. What do we get for AGAATGAGGTTATTAAGATCAGGGAGTTGCGGTC ?
Ans. True

Qu. What do we get for CTTGCTAGGTCAATGGTCAGCTAAAGCAGCTCGC ?
Ans. False

The measurements presented in this section are drawn from the supplement of paper PMC6555819.
